All figures here come from paper PMC7584679.

Target: hTS (recombinant human TS, thymidylate synthase) (Homo sapiens)
Assay: UV absorbance at […] nm, TS activity
Field: label. Allowed values: y (IC50 < 3000 nM) or n (IC50 >= 3000 nM).

Answer whether the compound O=c1[nH]cc(S(=O)(=O)Nc2cccc(-c3nnc(-c4ccccc4)o3)c2)c(=O)[nH]1 [7a] has IC50 strictly less than 3000 nM
n

Problem: For the compound O=c1[nH]cc(S(=O)(=O)Nc2cccc(-c3nnc(-c4ccccc4Br)o3)c2)c(=O)[nH]1 [7k] , is IC50 under 3000 nM?
y

IC50 under 3000 nM? Item: O=c1[nH]cc(S(=O)(=O)Nc2cccc(-c3nnc(-c4cccc(F)c4)o3)c2)c(=O)[nH]1 [7i]
n

Answer whether the compound O=c1[nH]cc(S(=O)(=O)Nc2cccc(-c3nnc(-c4ccccc4F)o3)c2)c(=O)[nH]1 [7h] has IC50 strictly less than 3000 nM
n

Problem: For the compound O=c1[nH]cc(S(=O)(=O)Nc2cccc(-c3nnc(-c4cccc(Cl)c4)o3)c2)c(=O)[nH]1 [7f] , is IC50 under 3000 nM?
y

Please let me know if O=c1[nH]cc(S(=O)(=O)Nc2cccc(-c3nnc(-c4ccc(Cl)cc4)o3)c2)c(=O)[nH]1 [7g] shows IC50 below 3000 nM.
y

In plain terms, does Cc1ccccc1-c1nnc(-c2cccc(NS(=O)(=O)c3c[nH]c(=O)[nH]c3=O)c2)o1 [7b] come in under 3000 nM for IC50?
y

Below 3000 nM on IC50? Entry Cc1cccc(-c2nnc(-c3cccc(NS(=O)(=O)c4c[nH]c(=O)[nH]c4=O)c3)o2)c1 [7c]
y

---

Molecular target: hTS (recombinant human TS, thymidylate synthase) (Homo sapiens, UniProt P04818)
Sequence (P04818 2-313): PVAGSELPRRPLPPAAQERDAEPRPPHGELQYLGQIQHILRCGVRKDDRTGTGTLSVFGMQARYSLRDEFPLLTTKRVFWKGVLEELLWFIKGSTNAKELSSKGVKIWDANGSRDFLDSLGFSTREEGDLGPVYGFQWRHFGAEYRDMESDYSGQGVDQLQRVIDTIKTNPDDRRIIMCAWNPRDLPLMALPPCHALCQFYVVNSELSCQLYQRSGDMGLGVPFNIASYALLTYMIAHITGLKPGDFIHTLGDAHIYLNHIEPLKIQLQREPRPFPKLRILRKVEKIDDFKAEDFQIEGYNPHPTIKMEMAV
Assay: UV absorbance at […] nm, TS activity
Field: IC50. Provide a value for each of the compounds that follow.
// note: answer is a bare numeric in nM

Endpoint output: IC50 of O=c1[nH]cc(S(=O)(=O)Nc2cccc(-c3nnc(-c4cccc(Br)c4)o3)c2)c(=O)[nH]1 . Value?
930

Form field: reported IC50 of Cc1ccc(-c2nnc(-c3cccc(NS(=O)(=O)c4c[nH]c(=O)[nH]c4=O)c3)o2)cc1
1790

May I ask what IC50 has been recorded for Nc1nc2[nH]cc(CCc3ccc(C(=O)N[C@@H](CCC(=O)O)C(=O)O)cc3)c2c(=O)[nH]1 ?
2440

Please give the measured IC50 for this compound: O=c1[nH]cc(S(=O)(=O)Nc2cccc(-c3nnc(-c4ccc(Br)cc4)o3)c2)c(=O)[nH]1
1290

So what's the measured IC50 for this one? O=c1[nH]cc(S(=O)(=O)Nc2cccc(-c3nnc(-c4ccccc4Cl)o3)c2)c(=O)[nH]1
650
